System: PC-3
Assay: NCI tumour cell line growth inhibition, 48 h
Calls of active or inactive are those of the source. Cut-off read from the data, not from the text of the source: active = GI50 up to about 1.1 µM and inactive = higher.
Measured GI50 values are reported for all entries that follow.
Property: GI50

INSERT INTO assay_data (molecule, target_desc, readout_value) VALUES
  ('N#CC(c1ccccc1)N(CCc1ccccc1)C(=O)c1ccc(C(=O)N(CCc2ccccc2)C(C#N)c2ccccc2)cc1 (stereo unspecified)', 'PC-3', '21.7 µM (inactive)'),
  ('O=C1CC2CCC(C1)[S+]2[O-] (stereo unspecified)', 'PC-3', '> 100 µM (inactive)'),
  ('CCOC(=O)c1ccc(NC(=O)Oc2ccc3c(C)cc(=O)oc3c2)cc1', 'PC-3', '38.4 µM (inactive)'),
  ('Cc1cc2c3ccccc3n(C)c2c2c1C(=O)C=CC2=O', 'PC-3', '9.91 µM (inactive)'),
  ('CCc1ccc2c(c1)CC1(C2)Cc2cc3c(cc2C1)C(=O)CC3 (stereo unspecified)', 'PC-3', '16.3 µM (inactive)'),
  ('CSc1ccn(C2CC(F)C(CO)O2)c(=O)n1 (stereo unspecified)', 'PC-3', '> 100 µM (inactive)');

These entries and their values trace back to ChEMBL document CHEMBL1201862.
